Recorded growth inhibition, one value per entry.
protocol_description: NCI Yeast Anticancer Drug Screen. Data for the mec2-1 strain (AID 157)
condition_context: S. cerevisiae mec2-1 strain, at 100.0 µM, stronger effect = higher value
Description: Growth inhibition of yeast strains with defined genetic alterations is measured as a screen for potential anti-cancer activity. Selected strains with alterations in DNA damage repair or cell cycle control were exposed to compounds and growth inhibition was measured relative to vehicle treated controls. The strain used in this assay is mec2-1
Compounds without any hit were thinned out: in the full panel of roughly 79,000, 15% have a hit.
measured_property: growth inhibition (%)

INSERT INTO results (compound, measurement_unit, numeric_readout) VALUES
  ('O=[N+]([O-])CC(SCc1ccccc1)c1ccc2c(c1)OCO2 (configuration not stated)', '%', 98),
  ('COc1ccc(NC(=S)N/N=C(\c2ccccc2)c2ccccn2)cc1', '%', 95),
  ('COc1ccccc1C(=O)OCC1CCCN2CCCCC12 (configuration not stated)', '%', 98),
  ('Cc1ccc(CSC(N)=Nc2ccccc2)cc1C', '%', 40),
  ('OCC1OC(OCC(O)C(O)C(O)C(/C=N/Nc2ccccc2)=N/Nc2ccccc2)C(O)C(O)C1O (configuration not stated)', '%', 68),
  ('CCCCN(CCCC)CCSc1ccc(Cl)cc1', '%', 92),
  ('CCCCc1cc(O)ccc1O', '%', 28),
  ('CCCCN1C(=O)N(c2ccc(OCC)cc2)C2N(CCCC)C1C(C)(C)C2(C)C (configuration not stated)', '%', 22),
  ('c1ccc2c(c1)C(=NCCCN1CCCCCC1)c1cccn1-2', '%', 98),
  ('O=C(N=Nc1cc(Cl)ccc1Cl)NNc1cc(Cl)ccc1Cl', '%', 4),
  ('CC(C)[N+]([O-])(CCCNc1c2ccccc2nc2cccc([N+](=O)[O-])c12)C(C)C', '%', 99),
  ('Cc1ccc(S(=O)(=O)NNC(=S)Nc2cccc3ccccc23)cc1', '%', 4),
  ('CC1(C)[C@@H]2CC[C@]1(C)[C@H](OC(=O)CSC#N)C2', '%', 97),
  ('Cc1ccc(CCC2=CCCc3c2ccc2ccccc32)cc1', '%', 5),
  ('Oc1c(Br)cc(Br)cc1C1CCCCC1', '%', 98),
  ('OC(c1ccc(F)cc1)(c1ccc(F)cc1)C1CC1', '%', 95),
  ('O=C(OCCN1CCCCCC1)C(c1ccsc1)C1CCCCC1 (configuration not stated)', '%', 32);

* * *

Recorded growth inhibition, one value per entry.
protocol_description: NCI Yeast Anticancer Drug Screen. Data for the wt1 strain (AID 149);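 further: 0% = growth of vehicle-treated wt1 cultures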
condition_context: S. cerevisiae wt1 strain (SPY 50644) growth inhibition; at 100.0 µM; stronger effect = higher value
This is part of a sample that, as a whole, favours compounds with a hit. Of some 79,000 tested, about 15% had one in any assay.
measured_property: growth inhibition (%)

INSERT INTO assay_data (compound, measured_property, measurement_unit, numeric_readout) VALUES
  ('[O-][n+]1c2ccc(O)cc2nc2ccc(Br)cc21', 'growth inhibition', '%', 67),
  ('CCN(CC)CCN1C(=O)c2cccc3cc(OC)cc(c23)C1=O', 'growth inhibition', '%', -1),
  ('O=Nc1c(NO)ccc2nn(-c3ccccc3)nc12', 'growth inhibition', '%', 96),
  ('Oc1ccc2ccccc2c1C(c1ccc(Cl)cc1)c1c(O)ccc2ccccc12', 'growth inhibition', '%', 84),
  ('CCCCCCCCCCCCCCCCCCOCC(O)COP(=O)(O)OCC1OC(n2cc(F)c(=O)[nH]c2=O)CC1O (stereo not given)', 'growth inhibition', '%', 93),
  ('CC(=O)Nc1ccc(/C=C(\C#N)c2ccc(C)cc2)cc1', 'growth inhibition', '%', 1),
  ('O=C(O)c1ccccc1NC(=S)c1ccccc1', 'growth inhibition', '%', 26),
  ('CC(=O)Oc1cc(-c2cc(OC(C)=O)c(OC(C)=O)c3ccccc23)c2ccccc2c1OC(C)=O', 'growth inhibition', '%', 59),
  ('O=C1CSC(/C=C/c2ccccc2)N1c1ccc(-c2ccc(-n3c(-c4ccccc4)nc4ccccc4c3=O)cc2)cc1 (stereo not given)', 'growth inhibition', '%', 14),
  ('OCC1OC(OCC(O)C(O)C(O)C(/C=N/Nc2ccccc2)=N/Nc2ccccc2)C(O)C(O)C1O (stereo not given)', 'growth inhibition', '%', 28);
